System: Stromelysin-1 (Homo sapiens, UniProt P08254) | Read-out: pIC50 | Origin: multiple publications
pIC50: −log10 of the molar value.
Range-based classes on measured pIC50: interval 1: < 5; interval 2: ≥ 5 and < 6; interval 3: ≥ 6

# compound, category_label
measured = [
    ("O=C(CC(CCn1nnc2ccccc2c1=O)C(=O)O)c1cc2cc(OCc3ccc(F)cc3)ccc2o1 (single isomer, unassigned; (+))", "interval 1"),
    ("O=CON=C1CCC(=CC(CS(=O)(=O)c2ccc(OCc3ccc4ccccc4n3)cc2)N(O)C=O)CC1 (stereo not shown)", "interval 1"),
    ("COCc1cc(COc2ccc(S(=O)(=O)CC(C=C3CCOCC3)N(O)C=O)cc2)cc(C)n1 (stereo not shown)", "interval 1"),
    ("O=C(O)[C@@H]1[C@@H](Cn2nnc3ccc(C(F)(F)F)cc3c2=O)CC[C@H]1C(=O)c1ccc(OCCC2CCCCC2)cc1 (single isomer, unassigned)", "interval 3"),
    ("Cc1cc(COc2ccc(S(=O)(=O)NC[C@@H](C(=O)NO)N3CCOCC3)cc2)c2ccccc2n1", "interval 2"),
]

Ask: Note: place this compound into its band. Item: Cc1cncc(C(CS(=O)(=O)c2ccc(OCc3cc(C)nc4ccc(C)cc34)cc2)N(O)C=O)c1 (stereo not shown)
Reply: interval 2

Ask: Also CCC(CC)CN1CCC(CC(CS(=O)(=O)c2ccc(OCc3cc(C)nc4ccccc34)cc2)N(O)C=O)CC1 (stereo not shown) ?
Reply: interval 3

Ask: Also CC(C)[C@H](NS(=O)(=O)c1ccc(-c2ccc(Cl)cc2)cc1)P(=O)(O)O ?
Reply: interval 3

Ask: Also Cc1cc(Cl)cc(COc2ccc(S(=O)(=O)CC(CC3CCC(=O)CC3)N(O)C=O)cc2)c1 (stereo not shown) ?
Reply: interval 2

Ask: Also CNC(=O)CC[C@H](NC(=O)[C@H](CC(C)C)[C@H](CSc1ccc(O)cc1)C(=O)NO)C(=O)NC ?
Reply: interval 3

====

System: Stromelysin-1 (Homo sapiens) | Read-out: IC50 | Origin: multiple publications
Answers are plain numbers, in nM.

# compound, measurement_name, test_value
measured = [
    ("O=C(O)[C@H]1[C@H](Cn2nnc3ccc(C(F)(F)F)cc3c2=O)CC[C@@H]1C(=O)c1ccc(OCc2ccccc2)cc1 (racemic)", "IC50", 100),
    ("C=CC[C@H](C(=O)NO)[C@@H](CC(C)C)C(=O)N[C@H](C(=O)NCC(C)(COC)COC)C(C)(C)C", "IC50", 50),
    ("CCCCCCOc1ccc(C(=O)[C@@H]2CC[C@H](Cn3nnc4ccc(C(F)(F)F)cc4c3=O)[C@H]2C(=O)O)cc1 (single isomer, unassigned)", "IC50", 300),
]

I'm hoping you can list IC50 for every compound here, please.
1. Cc1cc(COc2ccc(S(=O)(=O)CC(C(F)=C3CCOCC3)N(O)C=O)cc2)c2ccccc2n1 (stereo not drawn)
2. Cc1ccc2nnn(C[C@@H]3CC[C@H](C(=O)c4ccc(OCc5cccc(C(F)(F)F)c5)cc4)[C@H]3C(=O)O)c(=O)c2c1 (racemic)

Reply:
1. 10000
2. 1500

====

System: UniProtKB P08254 | Read-out: IC50 | Origin: multiple publications
hey, just use label 1 if measured IC50 is less than 300 nM, otherwise label 0

Would you please look over these solved cases?
# compound, category_label
records = [
    ("COc1ccc(CNC(=O)c2ccc3sc(=O)n(Cc4ccccc4)c(=O)c3c2)cc1", "label 0"),
    ("O=C(Nc1ccc(-c2ccc(S(=O)(=O)N3Cc4ccccc4C[C@@H]3C(=O)O)cc2)cc1)OCC1CC1", "label 0"),
    ("O=C(CC[C@H](NS(=O)(=O)c1ccc(-c2ccc(Cl)cc2)cc1)C(=O)O)NCCCN1CCOCC1", "label 1"),
]

Ask: Here's an entry: COCCOC(=O)N1CCN(S(=O)(=O)c2ccc(-c3cccc(F)c3)nc2)[C@@H](C(=O)NO)C1 . Is its IC50 below 300 nM?
Reply: label 1

Ask: Also CNC(=O)[C@@H](NC(=O)[C@H](CC(C)C)NC(=O)[C@@H](S)CCCN1C(=O)c2ccccc2C1=O)C(C)(C)C ?
Reply: label 1

Ask: Also Cc1ccccc1C(CS(=O)(=O)c1ccc(OCc2ccc3ccccc3n2)cc1)N(O)C=O (centres unmarked) ?
Reply: label 0

Ask: Also CN1CCN(C(=O)NS(=O)(=O)N2CCN(S(=O)(=O)c3cc(F)c(Oc4ccc(Cl)cc4)c(F)c3)[C@@H](C(=O)NO)C2)CC1 ?
Reply: label 1

Ask: Also COc1ccc(-c2ccc(S(=O)(=O)N(OCCOCCN3CCNCC3)[C@H](CCNC(=O)OCc3ccccc3)C(=O)NO)cc2)cc1 ?
Reply: label 1

Ask: Also CCC(CC)C(=O)N1CCC(CC(CS(=O)(=O)c2ccc(OCc3cc(C)nc4ccccc34)cc2)N(O)C=O)CC1 (centres unmarked) ?
Reply: label 0

Ask: Also O=C(CC[C@H](NS(=O)(=O)c1ccc(-c2ccccc2)cc1)C(=O)O)NCCNc1ccccc1 ?
Reply: label 1

Ask: Also O=C(O)[C@@H]1[C@@H](Cn2nnc3ccc(C(F)(F)F)cc3c2=O)CC[C@H]1C(=O)c1ccc(OCCC2CCOCC2)cc1 (single isomer, unassigned) ?
Reply: label 1

Ask: Also CC(NS(=O)(=O)c1ccc(-c2ccc(N3CCCC3)cc2)cc1)P(=O)(O)O (centres unmarked) ?
Reply: label 1
